// data source = paper PMC6218659

Assay Notes: in vivo
Parameters: species or system C57BL/6 mice
Measurement Setup: female, C57BL/6, mouse, ip, 30 mg/kg, Concentration, first series
Procedure: Test compound was dosed to sixteen female C57BL/6 mice by intraperitoneal injection in a volume of 0.6 ml. To reconstitute TUN-8,8 for intraperitoneal injections, compound (1 mg) was dissolved in 0.1 ml ethanol and subsequently diluted with 0.9 ml 1% Tween 80 in Dulbecco’s PBS. […] Blood samples were taken from the tail vein of the mice at pre-determined time intervals post-dose, and serum collected after 4 h on ice. […]
Assay Metric: concentration at 4 h (nM)
Write down the numeric answer in nM and omit the unit.

Reported concentration at 4 h ( CCCCCCCC(=O)N[C@H]1[C@H](O[C@H]2O[C@H](CO)[C@@H](O)[C@H](O)[C@H]2NC(=O)CCCCCCC)O[C@H](C[C@@H](O)[C@H]2O[C@@H](n3ccc(=O)[nH]c3=O)[C@H](O)[C@@H]2O)[C@H](O)[C@@H]1O ) = 1320

---

Assay Notes: in vivo
Design: species or system C57BL/6 mice
Measurement Setup: female, C57BL/6, mouse, ip, 30 mg/kg, Concentration, first series
Procedure: Test compound was dosed to sixteen female C57BL/6 mice by intraperitoneal injection in a volume of 0.6 ml. To reconstitute TUN-8,8 for intraperitoneal injections, compound (1 mg) was dissolved in 0.1 ml ethanol and subsequently diluted with 0.9 ml 1% Tween 80 in Dulbecco’s PBS. […] Blood samples were taken from the tail vein of the mice at pre-determined time intervals post-dose, and serum collected after 4 h on ice. […]
Assay Metric: concentration at 0.5 h (µM)
Write down the numeric answer in µM and omit the unit.

Reported concentration at 0.5 h ( CCCCCCCC(=O)N[C@H]1[C@H](O[C@H]2O[C@H](CO)[C@@H](O)[C@H](O)[C@H]2NC(=O)CCCCCCC)O[C@H](C[C@@H](O)[C@H]2O[C@@H](n3ccc(=O)[nH]c3=O)[C@H](O)[C@@H]2O)[C@H](O)[C@@H]1O ) = 42.7

---

Recorded IC50 by entry
System: S. aureus ATCC29219
Assay Notes: Micro-broth dilution and drop plate antimicrobial susceptibility test
Type: cell-based
Measurement Setup: Staphylococcus aureus
Write down the numeric answer in µg/mL and omit the unit.

Summary line: CCCCCCCCCCCC(=O)N[C@H]1[C@H](O[C@H]2O[C@H](CO)[C@@H](O)[C@H](O)[C@H]2NC(=O)CCCCCCCCCCC)O[C@H](C[C@@H](O)[C@H]2O[C@@H](n3ccc(=O)[nH]c3=O)[C@H](O)[C@@H]2O)[C@H](O)[C@@H]1O , S. aureus ATCC29219, reported IC50 = 61.9

Summary line: CCCCCCCCCC(=O)N[C@H]1[C@H](O[C@H]2O[C@H](CO)[C@@H](O)[C@H](O)[C@H]2NC(=O)CCCCCCCCC)O[C@H](C[C@@H](O)[C@H]2O[C@@H](n3ccc(=O)[nH]c3=O)[C@H](O)[C@@H]2O)[C@H](O)[C@@H]1O , S. aureus ATCC29219, reported IC50 = 49.3

Summary line: CCCCCCCC(=O)N[C@H]1[C@H](O[C@H]2O[C@H](CO)[C@@H](O)[C@H](O)[C@H]2NC(=O)CCCCCCC)O[C@H](C[C@@H](O)[C@H]2O[C@@H](n3ccc(=O)[nH]c3=O)[C@H](O)[C@@H]2O)[C@H](O)[C@@H]1O , S. aureus ATCC29219, reported IC50 = 58.4
